# TEST_TARGET: UniProt:P50053
# Sequence (P50053 other isoform, or with tags, fused parts or gaps): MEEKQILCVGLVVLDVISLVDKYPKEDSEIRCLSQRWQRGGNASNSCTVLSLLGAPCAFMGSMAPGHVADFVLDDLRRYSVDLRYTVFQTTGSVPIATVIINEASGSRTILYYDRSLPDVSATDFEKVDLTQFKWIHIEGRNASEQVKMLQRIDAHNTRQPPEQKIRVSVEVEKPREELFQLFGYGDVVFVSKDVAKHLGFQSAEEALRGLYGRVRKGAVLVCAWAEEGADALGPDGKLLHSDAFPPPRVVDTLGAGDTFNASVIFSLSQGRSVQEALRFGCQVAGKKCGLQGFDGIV
# ASSAY_PROCEDURE: KHK Biochemical Assay (IC50), ADP-Glo, KHK-A
# ASSAY_SETUP: ADP-Glo; average of at least two separate assays
pIC50: −log10 of the molar value.
MEASURED_PARAMETER: pIC50

Recorded results for 4 compounds are shown here.
compound="C[C@H]1CCN1c1nc2c(c(-c3cnn(C)c3)n1)CCC2 [Example 23]" test_target=UniProt:P50053 measured_parameter=pIC50 measured_number=7.16
compound="CC(=O)Nc1ccc(-c2nc(N3CC[C@@H]3C)nc3c2CCC3)cc1 [Example 355]" test_target=UniProt:P50053 measured_parameter=pIC50 measured_number=7.48
compound="C[C@H]1CCN1c1nc2c(c(-c3cc4cc(C(N)=O)ccc4[nH]3)n1)CCC2 [Example 152]" test_target=UniProt:P50053 measured_parameter=pIC50 measured_number=7.20
compound="C[C@H]1CCN1c1nc2c(c(-c3ccc4c(c3)S(=O)(=O)NC4=O)n1)CCC2 [Example 86]" test_target=UniProt:P50053 measured_parameter=pIC50 measured_number=7.30

P: C[C@H]1CCN1c1nc2c(c(-c3ccc4nc(O)ccc4c3)n1)CCC2 [Example 175]
Q: CC1CCc2nc(N3CC[C@@H]3C)nc(-c3ccccc3)c21 (stereo partly shown) [Example 339]
R: C[C@H]1CCN1c1nc2c(c(-c3cccc(CC(=O)O)c3)n1)CCC2 [Example 6]
Order the records by pIC50, with each subsequent value no larger than the one before. Order the labels as requested and list them.
P, R, Q
